The values you see were collected from PubChem BioAssay AID1159580.

# measurement-protocol: chemical genetic growth profiling, strain panel (AID 1159580);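 further: tested at 20 µM; growth read once vehicle control cultures reached saturation at 30 °C; 1 = growth at the plate median or of vehicle wells; lower values mean less growth of the strain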
# run-conditions: S. cerevisiae deletion strains, growth OD, locus YBR021W, strain FUR4, active compounds read low
Among all 5,500 compounds or so, about 2,000 (36%) were called active. Roughly 18% stayed inconclusive and do not appear here. The list shows a part of the results.
Provide the reported normalized growth of each item.
Just the number, please.

Enquiry: Data request, read-out normalized growth, for CCN1C[C@@]2(COC)C3[C@@H](OC)[C@H]4[C@@H]1[C@]3(C(OC)C[C@H]2O)C1C[C@@]2(O)[C@H](OC(=O)c3ccccc3)C1[C@]4(OC(C)=O)[C@@H](O)[C@@H]2OC (stereo not given in full)
Return: 0.985

Enquiry: Data request, read-out normalized growth, for O=C(O)C1CCCNC1 (stereo not given)
Return: 0.999

Enquiry: Data request, read-out normalized growth, for C=NC(C(=O)NC1C(=O)N2C1SC(C)(C)C2C(=O)O)c1ccccc1 (stereo not given)
Return: 0.999

Enquiry: Data request, read-out normalized growth, for COc1ccc2c(c1)OCC(Cc1ccc(OC)c(OC(C)=O)c1)C2=O (stereo not given)
Return: 0.883

Enquiry: Data request, read-out normalized growth, for NCCCNCCSP(=O)(O)O
Return: 0.967

Enquiry: Data request, read-out normalized growth, for COP(=S)(OC)Oc1ccc([N+](=O)[O-])cc1
Return: 1.01

Enquiry: Data request, read-out normalized growth, for COc1ccc2c(c1)OCC(Cc1ccc(OC)c(O)c1)C2=O (stereo not given)
Return: 0.873

Enquiry: Data request, read-out normalized growth, for Cc1cc(CC(=O)O)n(C)c1C(=O)c1ccc(Cl)cc1
Return: 0.979

Enquiry: Data request, read-out normalized growth, for Cc1cc(/C=C/c2ccc3cc(N(C)C)ccc3[n+]2C)c(C)n1-c1ccccc1
Return: 0.668

Enquiry: Data request, read-out normalized growth, for COc1ccc2c(c1)OCC(Cc1ccc(OC)c(OC)c1)C2=O (stereo not given)
Return: 0.905
